TARGET_OR_TEST_SYSTEM: T1, human CD45 (human, UniProt P08575 26-1306)
T1 sequence: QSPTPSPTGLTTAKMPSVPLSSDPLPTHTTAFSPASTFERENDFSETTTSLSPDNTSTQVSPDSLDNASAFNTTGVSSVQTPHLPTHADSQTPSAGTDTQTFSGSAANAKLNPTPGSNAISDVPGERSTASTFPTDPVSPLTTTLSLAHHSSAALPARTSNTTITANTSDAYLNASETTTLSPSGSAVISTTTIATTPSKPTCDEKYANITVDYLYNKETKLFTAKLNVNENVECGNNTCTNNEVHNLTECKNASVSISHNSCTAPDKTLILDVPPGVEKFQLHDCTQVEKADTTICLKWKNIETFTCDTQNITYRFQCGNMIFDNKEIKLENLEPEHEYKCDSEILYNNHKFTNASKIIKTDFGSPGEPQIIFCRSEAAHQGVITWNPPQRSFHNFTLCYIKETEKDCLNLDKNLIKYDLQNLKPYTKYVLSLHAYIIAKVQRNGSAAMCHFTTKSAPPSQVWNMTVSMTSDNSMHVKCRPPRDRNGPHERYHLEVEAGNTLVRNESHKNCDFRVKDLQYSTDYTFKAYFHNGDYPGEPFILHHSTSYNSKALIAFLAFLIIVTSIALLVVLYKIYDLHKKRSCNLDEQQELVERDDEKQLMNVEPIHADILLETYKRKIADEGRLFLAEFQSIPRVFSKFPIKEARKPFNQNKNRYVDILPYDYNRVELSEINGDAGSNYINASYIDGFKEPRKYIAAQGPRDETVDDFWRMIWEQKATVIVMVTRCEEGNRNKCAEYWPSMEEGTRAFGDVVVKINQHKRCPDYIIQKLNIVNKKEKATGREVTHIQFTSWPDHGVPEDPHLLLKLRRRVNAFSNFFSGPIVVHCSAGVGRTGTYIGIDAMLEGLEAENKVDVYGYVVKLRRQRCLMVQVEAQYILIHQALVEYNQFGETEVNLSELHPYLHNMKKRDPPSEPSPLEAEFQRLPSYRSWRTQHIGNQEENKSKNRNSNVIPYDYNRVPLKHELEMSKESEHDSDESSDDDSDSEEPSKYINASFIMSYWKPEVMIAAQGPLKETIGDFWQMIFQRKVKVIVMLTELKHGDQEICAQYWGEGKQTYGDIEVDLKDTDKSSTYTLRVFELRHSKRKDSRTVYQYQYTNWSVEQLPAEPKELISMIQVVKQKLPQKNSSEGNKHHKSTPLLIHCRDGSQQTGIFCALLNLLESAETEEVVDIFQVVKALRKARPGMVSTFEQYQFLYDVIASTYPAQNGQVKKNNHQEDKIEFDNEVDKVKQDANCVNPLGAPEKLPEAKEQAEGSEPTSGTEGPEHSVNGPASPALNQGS
PROTOCOL_DETAILS: cell-based or functional assay
Overview of recorded Average EC50, clonogenic assay, primary human CD34+ cells for various binders
Show the value, then the unit it is measured in.

>  <BINDER>
YTH24.5-B7 (antibody, V domains shown, PBD drug-linker B7 conjugated; sites and DAR not stated) VH: QVNLLQSGAALVKPGASVKLSCKASSYTFTDYYIHWVKQSHGKTLEWIGYINPKSGFTNYNEKFRRKATLTVDKSTNTAYMDISRLTSEDSATYYCTRRTGVIPMDAWGQGASVTVSS VL: DVVMTQTPVSLSVSLGGQVSISCRSSQSFVSSDGNTYLNWYLQKPGQSPQLLIYKVSNRLSGVPDRFSGSGSGTDFTLKISRVEHDDLGVYYCGQASKIPLTFGSGTKLEIKR

>  <RESULT>
35.5 pM

$$$$
>  <BINDER>
YTH54.12-B2 (antibody, V domains shown, PBD drug-linker B2 conjugated; sites and DAR not stated) VH: EVQLVESGGGLVQPGGSMKLSCAASGFTFSDYYMAWVRQAPKKGLEWVASMSFAGSSTYYGDSVKGRFTISRDNAKTTLYLQMNSLRSEDTATYYCARMYTTDYYLYWYFDFWGPGTMVTVSS VL: DVQMTQSPSYLAASPGESVSISCKASKSISNYLAWYQQKPGEANKILIYSGSTLQSGTPSRFSGSGSGTDFSLTIRNLEPEDFAVYYCQQYDEKPLTFGSGTKLEIKR

>  <RESULT>
23.9 pM

$$$$

// next entry
Which Average EC50, clonogenic assay, primary human CD34+ cells value is on record for YTH24.5-B2 (antibody, V domains shown, PBD drug-linker B2 conjugated; sites and DAR not stated) VH: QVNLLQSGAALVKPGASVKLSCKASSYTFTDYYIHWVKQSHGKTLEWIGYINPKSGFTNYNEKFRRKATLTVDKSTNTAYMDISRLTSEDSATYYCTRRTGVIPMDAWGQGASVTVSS VL: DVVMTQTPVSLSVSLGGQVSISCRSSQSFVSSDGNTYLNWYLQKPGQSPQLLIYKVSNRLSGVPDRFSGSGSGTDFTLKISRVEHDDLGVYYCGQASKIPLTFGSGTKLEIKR ? 32.7 pM

Provenance of the data: patent US20220096654A1
